meta.source: PubChem BioAssay (NCATS)

# reported Potency; entries follow
experiment-summary: Cellular viability qHTS for adrenocortical cancer (ACC) cell line SW-13 (AID 1963989); note: potency is the fitted concentration of half-maximal effect; nearly all actives have a fitted effect of over 65% in size
condition-notes: SW-13 ACC cells viability, CellTiter-Glo, 48 h
Records with an inconclusive call do not appear. The source made the active and inactive calls. Calls come from the whole dose curve; as a rule, active = well fitted cell-killing curve with a large enough effect; inconclusive = small, poorly fitted or top-dose-only effect; inactive = flat fitted curve, though single readings scatter.
quantity: Potency

mol: CN(C)C(=O)C(CCN1CCC(O)(c2ccc(Cl)cc2)CC1)(c1ccccc1)c1ccccc1
experimental-result: 5.17 µM (active)
//
mol: CNCc1ccc(C)c(NC(=O)c2ccc(Nc3nc(-c4ccccc4)c4ccccc4n3)cc2)c1
experimental-result: 28.2 µM (active)
//
mol: Cc1cccc(-c2[nH]c(C(C)(C)C)nc2-c2ccc3c(c2)OCO3)n1
experimental-result: 7.94 µM (active)
//
mol: CCCCCCCCCCCCCCCC[N+](C)(C)CCN(Cc1ccc(OC)cc1)c1ncccn1
experimental-result: 20.6 µM (active)
//
mol: C=CC(=O)N1CC[C@@H](Oc2nc(Nc3ccc(N4CCC(N5CCN(C)CC5)CC4)cc3)c(C(N)=O)nc2CC)C1
experimental-result: 1.43 µM (active)
